target: HA of ca A/Wuhan/359/95 (H3N2) virus (influenza A virus); experiment: cell-based or functional assay
Each entry below carries its recorded Neutralization IC50, H3-WH95-OR.

Antibody 15 (antibody, V domains shown) VH: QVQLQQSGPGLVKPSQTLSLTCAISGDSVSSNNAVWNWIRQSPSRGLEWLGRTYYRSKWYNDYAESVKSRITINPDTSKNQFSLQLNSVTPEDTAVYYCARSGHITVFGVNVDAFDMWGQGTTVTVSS VL: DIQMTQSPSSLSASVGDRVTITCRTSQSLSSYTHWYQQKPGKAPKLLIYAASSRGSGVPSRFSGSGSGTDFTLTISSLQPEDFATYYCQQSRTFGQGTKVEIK; 3.48 µg/mL

Reported Neutralization IC50, H3-WH95-OR for Antibody 14 (antibody, V domains shown) VH: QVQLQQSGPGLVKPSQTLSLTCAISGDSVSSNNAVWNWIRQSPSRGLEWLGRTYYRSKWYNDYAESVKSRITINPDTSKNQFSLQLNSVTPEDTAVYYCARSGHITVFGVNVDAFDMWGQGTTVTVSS VL: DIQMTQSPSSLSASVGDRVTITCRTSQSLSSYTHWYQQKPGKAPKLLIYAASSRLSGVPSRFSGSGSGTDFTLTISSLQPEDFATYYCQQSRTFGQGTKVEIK was 3.09 µg/mL

Reported Neutralization IC50, H3-WH95-OR for Antibody 11 (antibody, V domains shown) VH: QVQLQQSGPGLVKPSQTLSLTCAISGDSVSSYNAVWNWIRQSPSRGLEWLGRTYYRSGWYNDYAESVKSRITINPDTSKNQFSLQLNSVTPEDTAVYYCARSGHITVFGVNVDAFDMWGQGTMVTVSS VL: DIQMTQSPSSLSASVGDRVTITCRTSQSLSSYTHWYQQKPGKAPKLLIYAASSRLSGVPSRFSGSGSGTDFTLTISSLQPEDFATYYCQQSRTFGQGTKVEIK was 2.26 µg/mL
